Record: PIF 2 (photoirritancy factor, IC50(-UVA)/IC50(+UVA), OECD draft guideline 432) reported on BALB/c 3T3 (CCL-163) cells.

Query: Look up and report measured PIF 2 (photoirritancy factor, IC50(-UVA)/IC50(+UVA), OECD draft guideline 432) (BALB/c 3T3 (CCL-163) cells) for the following compound: O=C(NCN1CCOCC1)C1=C(O)CC2CC3Cc4cccc(O)c4C(=O)C3=C(O)C2(O)C1=O (stereo not drawn)
Response: 89.48

Query: Look up and report measured PIF 2 (photoirritancy factor, IC50(-UVA)/IC50(+UVA), OECD draft guideline 432) (BALB/c 3T3 (CCL-163) cells) for the following compound: CC1c2cccc(O)c2C(=O)C2=C(O)C3(O)C(=O)C(C(N)=O)=C(O)CC3C(O)C21 (stereo not drawn)
Response: 82.61

Query: Look up and report measured PIF 2 (photoirritancy factor, IC50(-UVA)/IC50(+UVA), OECD draft guideline 432) (BALB/c 3T3 (CCL-163) cells) for the following compound: CN(C)CC(=O)Nc1ccc2c(c1O)C(=O)C1=C(O)C3(O)C(=O)C(C(N)=O)=C(O)CC3CC1C2 (stereo not drawn)
Response: 12.87

Query: Look up and report measured PIF 2 (photoirritancy factor, IC50(-UVA)/IC50(+UVA), OECD draft guideline 432) (BALB/c 3T3 (CCL-163) cells) for the following compound: CN(C)c1ccc(O)c2c1CC1CC3CC(O)=C(C(N)=O)C(=O)C3(O)C(O)=C1C2=O (stereo not drawn)
Response: 2.04

Query: Look up and report measured PIF 2 (photoirritancy factor, IC50(-UVA)/IC50(+UVA), OECD draft guideline 432) (BALB/c 3T3 (CCL-163) cells) for the following compound: O=C(NCN1CCCCC1)C1=C(O)CC2CC3Cc4cccc(O)c4C(=O)C3=C(O)C2(O)C1=O (stereo not drawn)
Response: 58.22

Query: Look up and report measured PIF 2 (photoirritancy factor, IC50(-UVA)/IC50(+UVA), OECD draft guideline 432) (BALB/c 3T3 (CCL-163) cells) for the following compound: O=C(NCN1CCNCC1)C1=C(O)CC2CC3Cc4cccc(O)c4C(=O)C3=C(O)C2(O)C1=O (stereo not drawn)
Response: 35.30

Query: Look up and report measured PIF 2 (photoirritancy factor, IC50(-UVA)/IC50(+UVA), OECD draft guideline 432) (BALB/c 3T3 (CCL-163) cells) for the following compound: O=C(NCN1CCCC1)C1=C(O)CC2CC3Cc4cccc(O)c4C(=O)C3=C(O)C2(O)C1=O (stereo not drawn)
Response: 75.11

Query: Look up and report measured PIF 2 (photoirritancy factor, IC50(-UVA)/IC50(+UVA), OECD draft guideline 432) (BALB/c 3T3 (CCL-163) cells) for the following compound: NC(=O)C1=C(O)CC2CC3Cc4c([N+](=O)[O-])ccc(O)c4C(=O)C3=C(O)C2(O)C1=O (stereo not drawn)
Response: 23.32

Query: Look up and report measured PIF 2 (photoirritancy factor, IC50(-UVA)/IC50(+UVA), OECD draft guideline 432) (BALB/c 3T3 (CCL-163) cells) for the following compound: NC(=O)C1=C(O)CC2CC3Cc4ccc([N+](=O)[O-])c(O)c4C(=O)C3=C(O)C2(O)C1=O (stereo not drawn)
Response: 13.82

Query: Look up and report measured PIF 2 (photoirritancy factor, IC50(-UVA)/IC50(+UVA), OECD draft guideline 432) (BALB/c 3T3 (CCL-163) cells) for the following compound: CN(C)c1cc([N+](=O)[O-])c(O)c2c1CC1CC3CC(O)=C(C(N)=O)C(=O)C3(O)C(O)=C1C2=O (stereo not drawn)
Response: 1.35

Query: Look up and report measured PIF 2 (photoirritancy factor, IC50(-UVA)/IC50(+UVA), OECD draft guideline 432) (BALB/c 3T3 (CCL-163) cells) for the following compound: `NC(=O)C1=C(O)C[C@@H]2C[C@@H]3Cc4cccc(O)c4C(=O)C3=C(O)[C@]2(O)C1=O`
Response: 84.72

Query: Look up and report measured PIF 2 (photoirritancy factor, IC50(-UVA)/IC50(+UVA), OECD draft guideline 432) (BALB/c 3T3 (CCL-163) cells) for the following compound: CN(C)c1ccc2c(c1O)C(=O)C1=C(O)C3(O)C(=O)C(C(N)=O)=C(O)CC3CC1C2 (stereo not drawn)
Response: 1.56
